Test system: Ba/F3 cells expressing c-KIT Exon 11/N822K Gleevec-resistant double mutant
ASSAY INFO: Cell proliferation assay (CellTiter-Glo), Ba/F3 c-KIT exon 11/N822K
Assay type: cell-based, murine
PROTOCOL CONDITIONS: Mus musculus, BaF3, 72 h, dose range 0.6 to 10,000 nM, mean of at least three experiments, read-out: IC50 of cell proliferation inhibition, Exon 11/Gleevec-resistant Double Mutant N822K
OBSERVATION TYPE: pIC50
Numbers only, as −log10 of the molar value.

// returns reported pIC50 for input CNC(=O)c1cc(Oc2ccc(NC(=O)Nc3ccc(Cl)c(C(F)(F)F)c3)cc2)ccn1 7.77
